test system: Candida parapsilosis ATCC 22019; assay: Broth microdilution antimicrobial activity; type: cell-based
Below is a list of entries, each paired with its recorded MFC/MIC value.
API note: the answer field is a bare number with no unit suffix.

molecule: C[C@@H]1[C@H](O)[C@@H](C)/C=C/C=C/CC/C=C/C=C/C=C/C=C/C(O[C@H]2O[C@H](C)[C@@H](O)[C@H](N)[C@@H]2O)CC2O[C@](O)(CC(O)C(O)CCC(O)CC(O)CC(O)CC(=O)O[C@H]1C)CC(O)C2C(=O)O (some centres unmarked) [NY, nystatin, reference compound]
observation_type: MFC/MIC
meas_value: 2
--
molecule: CCCCCCNC(=S)NNS(=O)(=O)c1ccccc1 [WZ3]
observation_type: MFC/MIC
meas_value: 1

Next molecule, MFC/MIC to be filled in.
Exercise: Look up MFC/MIC for this molecule: CNC(=S)NNS(=O)(=O)c1ccccc1 [WZ4]
Solution: 8
